# protocol.summary: enhancers of RGS4 function in calcium signaling – cell-based, HEK293 M3R inducible RGS4, calcium flux, primary screen (AID 463111)
# experimental.parameters: HEK293 M3R/inducible RGS4, carbachol calcium flux Fluo4, at 10 µM
About 2,800 (0.9%) of roughly 310,000 compounds were called active.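 Rule for the calls: active = B-score of the integrated calcium signal more than 4 SD below the library mean, with starting fluorescence not abnormally high; inactive = the rest.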 The full list was thinned out, with actives kept by preference.
# output must be one of Yes for active, No for inactive

Example entries and their recorded answers appear below.
stdin: Look up the recorded call for `CN(C)S(=O)(=O)N1CCC(Oc2cccc(C(=O)NCCCC3CCCC3)c2)CC1` in this test.
stdout: Yes

stdin: How about `CC(=O)NCC(=O)N1CCC(n2nccc2NC(=O)CCCc2ccccc2)CC1` ?
stdout: No

stdin: Ok, now `CC1(C)C=C2[C@H]3CC[C@@H]4[C@@]5(C)CCC(=O)C(C)(C)[C@@H]5CC[C@@]4(C)[C@]3(C)CC[C@@]2(C(=O)O)CC1`
stdout: Yes

stdin: Request: `Cc1ccc(NS(=O)(=O)c2c(C)[nH]c(C)c2C(=O)N2CCCCC2)c(C)c1`
stdout: No

stdin: Next: CC(CC(=O)N1CCN(S(=O)(=O)c2ccccc2)CC1)n1cncn1 (stereo not drawn)
stdout: No

stdin: Follow-up entry: `CNS(=O)(=O)c1cccc(C(=O)NCC2CCCCC2)c1`
stdout: No

stdin: Can you handle FC(F)(F)C1CCCN(c2nsc3ccccc23)C1 (stereo not drawn) next?
stdout: No

stdin: Then what about the molecule `COc1cnc(SCc2ccc(Cl)c(Cl)c2)nc1Cl` ?
stdout: Yes

Others:
stdin: Lab log entry: `C=CCNC(=O)COC(=O)CNC(=O)c1cc(Cl)cc([N+](=O)[O-])c1` — outcome as called in the assay?
stdout: No

stdin: Please give the result for `O=C(CSc1ncccn1)N1CCCC1` too.
stdout: No

stdin: Moving on to the next molecule: CN(CC1CCCO1)S(=O)(=O)c1ccc(C(=O)Nc2ccc([N+](=O)[O-])cc2)cc1 (stereo not drawn)
stdout: No

stdin: Please give the result for COc1ccccc1CCCNC(=O)C1CCC(=O)N(CCN2CCOCC2)C1 (stereo not drawn) too.
stdout: No

stdin: Next molecule up: CC(C)=CCN1CCN(CCCc2ccccc2)CC1CCO (stereo not drawn)
stdout: No

stdin: Next molecule up: COc1ccc(C2=NN(C(=O)CSc3nc(=O)n4ccc(C)cc4n3)C(c3ccc(C)cc3)C2)cc1 (stereo not drawn)
stdout: No

stdin: How about this molecule: Nc1nnc(SCC(=O)NC2CCCc3ccccc32)s1 (stereo not drawn)
stdout: No

stdin: Subsequent entry: `COc1cc(Cl)ccc1OCc1cc(C(=O)N2CC[C@@H]3CCCC[C@H]3C2)no1`
stdout: No

stdin: Then what about the molecule `Cc1cc(C(=O)OCC(=O)Nc2ccc(F)c(F)c2)c(C)o1` ?
stdout: No

stdin: For COc1cc(CN2CCCC(C(=O)c3ccc(SC)cc3)C2)cc(Cl)c1O (stereo not drawn) then?
stdout: No

stdin: Try this molecule too: CCOC(=O)C1C(c2ccc(Cl)cc2)NC(=S)NC1(O)C(F)(F)F (stereo not drawn)
stdout: No

stdin: Here is the next molecule: `Cc1ccc(/C=C(\C#N)C(=O)Nc2cccc3ncccc23)o1`
stdout: No
